System: HepG2 (human hepatocellular carcinoma)
EXPERIMENTAL PROTOCOL: Cytotoxic assay, alamar blue, HepG2
Assay type: cell-based
EXPERIMENTAL CONTEXT: HepG2, 72 h, read-out: IC50 HepG2
READOUT NAME: IC50 (µM)
Please reply with the bare figure in µM and do not write the unit itself.

Exercise: Value lookup for IC50; key = C[C@]12CC[C@@H]3c4ccc(O)cc4CC[C@H]3[C@@H]1CC[C@@]2(O)c1cn(CC(=O)c2ccccc2)nn1
Key: 29.7

* * *

Test system: MCF-7 (human breast adenocarcinoma)
EXPERIMENTAL PROTOCOL: Cytotoxic assay, alamar blue, MCF-7
Type: cell-based
EXPERIMENTAL CONTEXT: MCF7, 72 h, read-out: IC50 MCF-7
READOUT NAME: IC50

Exercise: Using the record for C[C@]12CC[C@@H]3c4ccc(O)cc4CC[C@H]3[C@@H]1CC[C@@]2(O)c1cn(CC(=O)c2ccccc2)nn1 , report its IC50.
Key: > 54.6 µM

* * *

Test system: MRC-5 (human lung fibroblast)
EXPERIMENTAL PROTOCOL: Cytotoxic assay, alamar blue, non-cancer MRC-5
Format: cell-based
EXPERIMENTAL CONTEXT: MRC5, 72 h, read-out: IC50 MRC-5
READOUT NAME: pIC50
When answering, recall that pIC50 equals minus log10 of the concentration in mol/L, and write that number alone.

Exercise: Query: pIC50; subject: COc1cccc2c1C(=O)c1c(O)c3c(c(O)c1C2=O)C[C@@](O)(C(=O)CO)C[C@@H]3O[C@H]1C[C@H](N)[C@H](O)[C@H](C)O1
Key: 5.62
